target: T7 RNA polymerase (Escherichia phage T7, UniProt P00573)
Construct: purchased bioMérieux, Marcy l'Etoile, France
Sequence (P00573 whole entry): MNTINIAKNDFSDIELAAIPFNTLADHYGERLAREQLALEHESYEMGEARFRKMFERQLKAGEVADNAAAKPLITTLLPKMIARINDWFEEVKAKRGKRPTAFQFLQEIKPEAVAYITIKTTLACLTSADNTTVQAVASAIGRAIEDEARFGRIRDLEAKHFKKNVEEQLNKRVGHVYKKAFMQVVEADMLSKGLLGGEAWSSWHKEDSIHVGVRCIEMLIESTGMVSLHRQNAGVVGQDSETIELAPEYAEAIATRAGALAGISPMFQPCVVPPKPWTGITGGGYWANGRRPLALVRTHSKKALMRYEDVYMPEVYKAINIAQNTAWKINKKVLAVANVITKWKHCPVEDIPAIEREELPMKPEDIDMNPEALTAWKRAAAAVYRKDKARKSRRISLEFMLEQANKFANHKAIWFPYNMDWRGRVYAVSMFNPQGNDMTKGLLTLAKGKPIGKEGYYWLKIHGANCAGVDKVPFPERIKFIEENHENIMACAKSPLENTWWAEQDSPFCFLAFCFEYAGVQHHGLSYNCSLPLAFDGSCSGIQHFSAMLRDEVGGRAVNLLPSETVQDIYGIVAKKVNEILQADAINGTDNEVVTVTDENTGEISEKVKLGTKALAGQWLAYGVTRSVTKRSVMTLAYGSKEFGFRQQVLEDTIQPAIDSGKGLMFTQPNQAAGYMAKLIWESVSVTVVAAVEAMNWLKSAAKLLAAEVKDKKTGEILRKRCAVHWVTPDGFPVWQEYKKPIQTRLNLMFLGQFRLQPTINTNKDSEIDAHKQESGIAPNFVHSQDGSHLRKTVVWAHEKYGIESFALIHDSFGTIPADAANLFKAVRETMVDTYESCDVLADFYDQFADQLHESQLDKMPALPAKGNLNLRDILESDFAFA
method.notes: Thermal denaturation of T7 RNA polymerase (T7 Tm) by UV spectrophotometry
Assay type: physicochemical
applied.conditions: T7 RNA polymerase at 0.05 mg/ml, PBS 150 mM pH 7.5; versus control without additive (T7 Tm 48.5° C.); Sorbitol 1M, Sucrose 1M, Lactose 0.35M, Raffmose 0.085M, D-Turanose 0.15M; read-out: ΔTm
Procedure: T7 RNA polymerase was chosen as model enzyme since it is the most sensitive to thermal denaturation; the T7 Tm without additive is 48.5° C. A UV spectrophotometry technique is used to measure the T7 Tm values. The change in the absorbance of the protein at λ=280 nm as a function of temperature is measured. […] The Tm corresponds to the temperature for which there is 50% of native form and 50% of denatured form (first derivative of the curve absorbance=f(temperature)). […]
reported.property: ΔTm (°C)
Entry rule: numbers only, all in °C.

Lookup: Look at this molecule and give its reported ΔTm. `OC[C@@H](O)[C@@H](O)[C@H](O)[C@@H](O)CO`
Found: 0.9

Lookup: I have this molecule here, `OC[C@H]1O[C@H](OC[C@H]2O[C@H](O[C@]3(CO)O[C@H](CO)[C@@H](O)[C@@H]3O)[C@H](O)[C@@H](O)[C@@H]2O)[C@H](O)[C@@H](O)[C@H]1O` , and I need its recorded ΔTm.
Found: 0.5

Lookup: Would you kindly share the measured ΔTm for OC[C@H]1O[C@@H](O[C@H]2[C@H](O)[C@@H](O)C(O)O[C@@H]2CO)[C@H](O)[C@@H](O)[C@H]1O (stereo partly shown) ?
Found: 5.5

Lookup: Please report the recorded ΔTm for `OC[C@H]1O[C@@](CO)(O[C@H]2O[C@H](CO)[C@@H](O)[C@H](O)[C@H]2O)[C@@H](O)[C@@H]1O` .
Found: 5.8
